ASSAYED TARGET: BRAF V600E (Homo sapiens, UniProt P15056, V600E)
Sequence (P15056 whole entry V600E): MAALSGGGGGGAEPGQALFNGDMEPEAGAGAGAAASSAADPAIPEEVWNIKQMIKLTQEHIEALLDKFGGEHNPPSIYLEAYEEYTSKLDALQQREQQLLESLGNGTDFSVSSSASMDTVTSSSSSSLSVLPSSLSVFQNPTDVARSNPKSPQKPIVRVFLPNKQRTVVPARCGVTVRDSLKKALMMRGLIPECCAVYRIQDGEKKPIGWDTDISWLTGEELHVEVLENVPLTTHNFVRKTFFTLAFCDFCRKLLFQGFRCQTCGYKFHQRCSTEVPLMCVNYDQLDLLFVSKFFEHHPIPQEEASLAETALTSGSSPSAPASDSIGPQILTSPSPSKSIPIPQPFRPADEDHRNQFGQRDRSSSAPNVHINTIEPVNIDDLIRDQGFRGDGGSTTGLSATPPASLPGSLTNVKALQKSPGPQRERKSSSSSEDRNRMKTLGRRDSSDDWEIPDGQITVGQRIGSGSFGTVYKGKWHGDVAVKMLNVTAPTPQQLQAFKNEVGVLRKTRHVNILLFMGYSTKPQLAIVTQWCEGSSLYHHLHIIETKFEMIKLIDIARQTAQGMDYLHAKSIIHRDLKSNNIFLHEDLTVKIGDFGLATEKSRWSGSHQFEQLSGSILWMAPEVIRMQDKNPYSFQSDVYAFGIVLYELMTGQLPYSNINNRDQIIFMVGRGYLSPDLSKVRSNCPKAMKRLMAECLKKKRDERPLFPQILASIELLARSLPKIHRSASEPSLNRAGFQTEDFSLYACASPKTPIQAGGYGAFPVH
ASSAY SUMMARY: LanthaScreen biochemical kinase assay
pIC50: −log10 of the molar value.
MEASURED ENDPOINT: pIC50

P. Cc1nc(Nc2ccc(NC(=O)Nc3ccc(F)c(Cl)c3)cc2)cc(N2CCOCC2)n1
Q. Cc1nc(Nc2cccc(NC(=O)Nc3cc(F)ccc3C)c2)cc(N2CCOCC2)n1
## Input Of the two listed items, which has the higher pIC50? First: P Second: Q Field: selected label. Fill in the label of the entry you choose.
## Output Q
